System: P-glycoprotein (MDR1)
assayOverview: Bidirectional MDR1-MDCK permeability, Compound I-1 as a substrate
testSettings: dog, MDCK-MDR1, pH 7.4, Assymetry Index, Surf.
measuredParameter: efflux ratio at 5 μM

Asked: # input compound: CC(C)(CO)c1cc(NC(=O)Nc2ccc(-c3cn4c(n3)sc3cc(OCCN5CCOCC5)ccc34)cc2)no1 ; wanted: its efflux ratio at 5 μM
Given back: 1.2

====

assayOverview: Aqueous and surfactant solubility
Format: physicochemical
testSettings: HBSS buffer with 0.05% Polysorbate 80, pH 7.4, aqueous with cosolvent or surfactant or cyclodextrin, kinetic from dmso stock; HBSS containing 0.05% Polysorbate 80, 2.5% DMSO, room temperature overnight; read-out: Average Aqueous Solubility, 0.05% Polysorbate 80
Each entry below lists one item and its recorded solubility value.
Express it in µM; write the number only.

CC(C)(CO)c1cc(NC(=O)Nc2ccc(-c3cn4c(n3)sc3cc(OCCN5CCOCC5)ccc34)cc2)no1    2

Asked: Requested read-out: solubility. Entry: COC(=O)[C@H]1[C@H]2C[C@@H]3c4[nH]c5cc(OC)ccc5c4CCN3C[C@H]2C[C@@H](OC(=O)c2cc(OC)c(OC)c(OC)c2)[C@@H]1OC
Given back: 5

====

assayedTarget: CYP2C8 (Homo sapiens (Human))
Sequence (P10632 whole entry): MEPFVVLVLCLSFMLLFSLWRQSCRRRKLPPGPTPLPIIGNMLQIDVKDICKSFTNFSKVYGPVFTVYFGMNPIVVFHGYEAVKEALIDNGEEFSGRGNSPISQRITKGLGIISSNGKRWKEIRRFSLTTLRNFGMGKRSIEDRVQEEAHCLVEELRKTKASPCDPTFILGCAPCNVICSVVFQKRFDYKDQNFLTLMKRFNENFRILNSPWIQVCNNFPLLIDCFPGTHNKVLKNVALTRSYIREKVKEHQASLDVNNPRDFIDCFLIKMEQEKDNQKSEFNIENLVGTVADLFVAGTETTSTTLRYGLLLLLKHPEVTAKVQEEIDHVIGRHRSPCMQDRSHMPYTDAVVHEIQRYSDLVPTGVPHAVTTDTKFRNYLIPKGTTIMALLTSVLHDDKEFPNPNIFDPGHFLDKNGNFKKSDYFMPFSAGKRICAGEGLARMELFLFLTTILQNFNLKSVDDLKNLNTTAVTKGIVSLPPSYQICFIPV
assayOverview: Inhibitory constant KI in human liver microsomes, CYP2C8
Format: in vitro ADME
testSettings: CYP2C8, global non-linear regression; read-out: Best Fit KI, Non-competitive
measuredParameter: Ki (µM)
The figure you give is taken to be in µM; do not add the unit.

Asked: Recorded Ki of CC(C)(CO)c1cc(NC(=O)Nc2ccc(-c3cn4c(n3)sc3cc(OCCN5CCOCC5)ccc34)cc2)no1 , please.
Given back: 60.8

====

assayOverview: in vitro
testSettings: dog, microsomes, pH 7.4, Half-life
measuredParameter: half-life at 1 μM (min)
Please state the figure in min; there is no need to write the unit.

Asked: Please look up its half-life at 1 μM: CC(C)(C)c1cc(NC(=O)Nc2ccc(-c3cn4c(n3)sc3cc(OCCN5CCOCC5)ccc34)cc2)no1 [Compound IA]
Given back: 33

====

assayOverview: Microsomal stability, pooled mouse liver microsomes
Format: in vitro ADME
testSettings: pH 7.4; mouse liver microsomes, 1 μM, 0.5 mg/mL, NADPH; read-out: Half-life
measuredParameter: half-life at 1 μM (min)
The figure you give is taken to be in min; do not add the unit.

Asked: What does the data say about its half-life at 1 μM? Entry: C[C@]12CC[C@H]3[C@@H](CCC4=CC(=O)CC[C@@]43C)[C@@H]1CC[C@@H]2O
Given back: 6

====

assayOverview: Microsomal stability and metabolic turnover, pooled rat liver microsomes
testSettings: pH 7.4
measuredParameter: half-life at 1 μM (min)
Just the number please, in min, no unit attached.

Asked: Value lookup for half-life at 1 μM; key = C[C@]12CC[C@H]3[C@@H](CCC4=CC(=O)CC[C@@]43C)[C@@H]1CC[C@@H]2O [Testosterone]
Given back: 4

====

assayedTarget: P-Glycoprotein (Homo sapiens (Human), UniProt P08183)
Sequence (P08183 whole entry): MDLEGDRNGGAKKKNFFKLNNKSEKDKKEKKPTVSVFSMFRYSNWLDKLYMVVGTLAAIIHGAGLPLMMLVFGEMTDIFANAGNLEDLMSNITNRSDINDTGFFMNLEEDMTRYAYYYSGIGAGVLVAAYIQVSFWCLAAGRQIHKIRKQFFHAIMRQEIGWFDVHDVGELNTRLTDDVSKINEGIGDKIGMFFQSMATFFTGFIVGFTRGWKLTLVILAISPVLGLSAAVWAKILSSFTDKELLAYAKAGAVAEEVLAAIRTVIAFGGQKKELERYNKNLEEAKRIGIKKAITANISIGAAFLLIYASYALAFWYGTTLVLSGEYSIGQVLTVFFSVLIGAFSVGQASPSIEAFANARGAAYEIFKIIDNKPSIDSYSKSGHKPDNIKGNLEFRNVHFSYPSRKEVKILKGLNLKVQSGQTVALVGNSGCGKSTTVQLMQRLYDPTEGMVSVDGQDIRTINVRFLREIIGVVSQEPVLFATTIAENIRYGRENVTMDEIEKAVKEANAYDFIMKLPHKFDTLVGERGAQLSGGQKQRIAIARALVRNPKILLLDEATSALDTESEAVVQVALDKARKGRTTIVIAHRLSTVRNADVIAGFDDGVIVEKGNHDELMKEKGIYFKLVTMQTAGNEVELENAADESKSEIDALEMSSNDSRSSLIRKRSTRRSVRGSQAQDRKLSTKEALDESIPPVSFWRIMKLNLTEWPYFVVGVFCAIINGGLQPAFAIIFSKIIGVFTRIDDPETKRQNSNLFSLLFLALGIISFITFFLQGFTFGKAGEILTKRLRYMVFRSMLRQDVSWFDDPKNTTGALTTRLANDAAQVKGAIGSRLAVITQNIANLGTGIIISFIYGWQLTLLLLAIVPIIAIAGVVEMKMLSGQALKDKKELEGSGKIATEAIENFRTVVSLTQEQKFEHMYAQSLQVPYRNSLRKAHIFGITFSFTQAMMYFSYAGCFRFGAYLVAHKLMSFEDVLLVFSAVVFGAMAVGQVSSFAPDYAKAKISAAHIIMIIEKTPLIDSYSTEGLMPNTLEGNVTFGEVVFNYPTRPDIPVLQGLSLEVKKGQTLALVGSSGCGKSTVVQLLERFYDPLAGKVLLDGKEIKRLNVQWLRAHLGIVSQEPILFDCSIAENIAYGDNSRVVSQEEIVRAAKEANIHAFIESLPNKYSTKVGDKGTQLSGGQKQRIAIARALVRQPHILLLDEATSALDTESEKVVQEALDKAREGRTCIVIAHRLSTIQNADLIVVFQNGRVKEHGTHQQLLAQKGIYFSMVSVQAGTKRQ
assayOverview: Digoxin bidirectional MDR1-MDCK permeability, Compound I-1 as an inhibitor
testSettings: dog, MDCK-MDR1, pH 7.4, Digoxin PeAP→BL, Table 17, Digoxin 1 μM alone, Std
measuredParameter: Papp A→B at 1 μM (×10⁻⁶ cm/s)
Respond numerically; units are ×10⁻⁶ cm/s and should not be typed.

Asked: GET /values?readout=Papp A→B at 1 μM&system=P-Glycoprotein (Homo sapiens (Human), UniProt P08183)&item= C[C@H]1O[C@@H](O[C@H]2[C@@H](O)C[C@H](O[C@H]3[C@@H](O)C[C@H](O[C@H]4CC[C@@]5(C)[C@H](CC[C@@H]6[C@@H]5C[C@@H](O)[C@]5(C)[C@@H](C7=CC(=O)OC7)CC[C@]65O)C4)O[C@@H]3C)O[C@@H]2C)C[C@H](O)[C@@H]1O [Digoxin, reference compound]
Given back: 8.76

====

assayedTarget: CYP1A2 (Homo sapiens (Human), UniProt P05177)
Sequence (P05177 whole entry): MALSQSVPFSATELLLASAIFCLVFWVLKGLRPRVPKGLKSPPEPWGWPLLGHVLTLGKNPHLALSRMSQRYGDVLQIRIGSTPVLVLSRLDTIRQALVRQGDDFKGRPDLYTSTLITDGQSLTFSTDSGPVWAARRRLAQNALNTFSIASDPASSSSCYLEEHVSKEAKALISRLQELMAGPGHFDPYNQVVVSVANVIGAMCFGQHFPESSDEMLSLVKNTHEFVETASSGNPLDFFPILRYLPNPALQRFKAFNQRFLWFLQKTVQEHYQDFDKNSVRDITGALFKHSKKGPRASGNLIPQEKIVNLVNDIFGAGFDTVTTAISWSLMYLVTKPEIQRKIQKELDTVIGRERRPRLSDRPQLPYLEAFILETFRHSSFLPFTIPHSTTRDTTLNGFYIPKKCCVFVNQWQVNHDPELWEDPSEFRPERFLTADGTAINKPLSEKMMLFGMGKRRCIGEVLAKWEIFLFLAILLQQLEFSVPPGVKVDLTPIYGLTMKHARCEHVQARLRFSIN
pIC50: −log10 of the molar value.
measuredParameter: pIC50

Asked: I am curious: what pIC50 value has been reported for CC(C)(CO)c1cc(NC(=O)Nc2ccc(-c3cn4c(n3)sc3cc(OCCN5CCOCC5)ccc34)cc2)no1 [Compound I-1] ?
Given back: < 4.40

====

System: P-glycoprotein (MDR1)
assayOverview: in vitro
testSettings: dog, MDCK-MDR1, pH 7.4, Assymetry Index
measuredParameter: efflux ratio at 10 μM
Keep it simple and answer with nothing but the number.

Asked: Requested read-out: efflux ratio at 10 μM. Entry: CC(C)NCC(O)COc1cccc2[nH]ccc12 (stereo not shown)
Given back: 1

====

assayOverview: Microsomal stability, pooled mouse liver microsomes
Assay type: in vitro ADME
testSettings: mouse, microsomes, pH 7.4
measuredParameter: microsomal CLint at 1 μM

Asked: Which value of microsomal CLint at 1 μM has been reported for CC(C)(C)c1cc(NC(=O)Nc2ccc(-c3cn4c(n3)sc3cc(OCCN5CCOCC5)ccc34)cc2)no1 in the records?
Given back: < 23 µL/min/mg

====

assayedTarget: CYP2C19 (Homo sapiens (Human), UniProt P33261)
Sequence (P33261 whole entry): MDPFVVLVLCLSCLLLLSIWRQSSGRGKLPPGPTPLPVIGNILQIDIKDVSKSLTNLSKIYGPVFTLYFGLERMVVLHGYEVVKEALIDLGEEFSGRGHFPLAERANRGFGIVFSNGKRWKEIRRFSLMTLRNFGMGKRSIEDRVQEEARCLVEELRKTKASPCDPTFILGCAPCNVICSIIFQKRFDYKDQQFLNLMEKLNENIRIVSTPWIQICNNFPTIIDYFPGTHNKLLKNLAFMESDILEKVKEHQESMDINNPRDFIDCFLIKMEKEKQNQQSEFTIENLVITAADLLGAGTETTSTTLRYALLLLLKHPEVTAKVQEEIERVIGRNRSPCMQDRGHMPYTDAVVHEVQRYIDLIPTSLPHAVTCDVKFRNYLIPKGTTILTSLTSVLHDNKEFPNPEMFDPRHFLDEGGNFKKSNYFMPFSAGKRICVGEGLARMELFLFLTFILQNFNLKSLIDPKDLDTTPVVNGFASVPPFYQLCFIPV
assayOverview: Inhibitory constant KI in human liver microsomes, CYP2C19
Assay type: in vitro ADME
testSettings: CYP2C19, global non-linear regression; read-out: Best Fit KI, Non-competitive
measuredParameter: Ki (µM)
Supply the numeric figure in µM, leaving out any unit text.

Asked: Given CC(C)(CO)c1cc(NC(=O)Nc2ccc(-c3cn4c(n3)sc3cc(OCCN5CCOCC5)ccc34)cc2)no1 , state its recorded Ki.
Given back: 10.4

====

Listing of entries alongside the reported EC50.
System: RS4;11 cells
assayOverview: RS4;11 cellular proliferation assay (Cell Titer Blue)
Format: cell-based
testSettings: Homo sapiens, RS4-11, 48 h, read-out: EC50 (50% inhibition of cellular proliferation)
Please reply with the bare figure in nM and do not write the unit itself.

CC(C)(CO)c1cc(NC(=O)Nc2ccc(-c3cn4c(n3)sc3cc(OCCN5CCOCC5)ccc34)cc2)no1    2

Let us examine a further case.
Asked: I'm curious: which EC50 was measured for CC(C)(C)c1cc(NC(=O)Nc2ccc(-c3cn4c(n3)sc3cc(OCCN5CCOCC5)ccc34)cc2)no1 tested on RS4;11 cells?
Given back: 4

====

assayedTarget: UniProt:P10632
assayOverview: Inhibitory constant KI in human liver microsomes, CYP2C8
Format: in vitro ADME
testSettings: CYP2C8, global non-linear regression; read-out: Best Fit KI, Competitive
measuredParameter: Ki (µM)
Answer in µM, number only, no unit symbol.

Asked: Data request, read-out Ki, for CC(C)(CO)c1cc(NC(=O)Nc2ccc(-c3cn4c(n3)sc3cc(OCCN5CCOCC5)ccc34)cc2)no1
Given back: 22.1

====

System: P-glycoprotein (MDR1)
assayOverview: in vitro
testSettings: dog, MDCK-MDR1, pH 7.4, PeBL→AP
measuredParameter: Papp B→A at 10 μM (×10⁻⁶ cm/s)
Report only the number, with the unit ×10⁻⁶ cm/s understood.

Asked: Item CC(C)NCC(O)COc1cccc2[nH]ccc12 (stereo not shown) has what recorded Papp B→A at 10 μM?
Given back: 30.6

====

assayedTarget: P-Glycoprotein (Homo sapiens (Human))
assayOverview: Digoxin bidirectional MDR1-MDCK permeability, Compound I-1 as an inhibitor
testSettings: dog, MDCK-MDR1, pH 7.4, Digoxin PeAP→BL, preliminary experiment, Digoxin 1 μM alone, Surf.
measuredParameter: Papp A→B at 1 μM (×10⁻⁶ cm/s)
Record the value in ×10⁻⁶ cm/s, omitting the unit from your answer.

Asked: Please tell me: Papp A→B at 1 μM of C[C@H]1O[C@@H](O[C@H]2[C@@H](O)C[C@H](O[C@H]3[C@@H](O)C[C@H](O[C@H]4CC[C@@]5(C)[C@H](CC[C@@H]6[C@@H]5C[C@@H](O)[C@]5(C)[C@@H](C7=CC(=O)OC7)CC[C@]65O)C4)O[C@@H]3C)O[C@@H]2C)C[C@H](O)[C@@H]1O [Digoxin, reference compound] , system P-Glycoprotein (Homo sapiens (Human))?
Given back: 2.91

====

assayedTarget: P-Glycoprotein (Homo sapiens (Human))
assayOverview: Digoxin bidirectional MDR1-MDCK permeability, Compound I-1 as an inhibitor
testSettings: dog, MDCK-MDR1, pH 7.4, Digoxin PeAP→BL, Table 17, Digoxin 1 μM alone, Surf.
measuredParameter: Papp A→B at 1 μM
In your response, put the unit directly after the numeric value.

Asked: # Papp A→B at 1 μM lookup, item C[C@H]1O[C@@H](O[C@H]2[C@@H](O)C[C@H](O[C@H]3[C@@H](O)C[C@H](O[C@H]4CC[C@@]5(C)[C@H](CC[C@@H]6[C@@H]5C[C@@H](O)[C@]5(C)[C@@H](C7=CC(=O)OC7)CC[C@]65O)C4)O[C@@H]3C)O[C@@H]2C)C[C@H](O)[C@@H]1O [Digoxin, reference compound]
Given back: 2.21 ×10⁻⁶ cm/s
